Test system: C. elegans VP596 worm health composite score, 20-22 h
test_summary: C. elegans worm health toxicity scoring, SAR follow-up, cytotoxicity control for SKN-1 inhibitor project, whole organism, strain VP596, composite health score, round 3 (AID 743062)
Active and inactive are the calls of the source.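 Rule for the calls: active = IC50 of 25 µM or lower, counted as toxic to worms; inactive = the rest.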
Listed here: items and their measured IC50.

These solved cases illustrate the format of a correct answer.
COc1ccc(-c2nc(-c3ccncc3)sc2C)cc1: > 64 µM (inactive)
COc1ccccc1-c1csc(-c2ccncc2)n1: 48.4 µM (inactive)
c1ccc(-c2csc(C3CCNCC3)n2)cc1: > 64 µM (inactive)
Cc1ccc(-c2csc(-c3ccccc3)n2)cc1: > 64 µM (inactive)
Clc1ccc(-c2csc(-c3ccccc3)n2)cc1: > 64 µM (inactive)

// IC50 lookup, key: "Clc1ccc(-c2csc(-c3ccncc3)n2)c(Cl)c1"
> 64 µM (inactive)

IC50 lookup needed for "CCCc1cc(-c2nc(-c3ccc(C)cc3)cs2)ccn1" , thanks.
> 64 µM (inactive)

Request the reported IC50 associated with "Clc1ccccc1-c1csc(-c2ccncc2)n1"
33.2 µM (inactive)

Looking for the measured IC50 of "c1ccc(-c2csc(-c3ccccn3)n2)cc1" , can you help?
> 64 µM (inactive)

Could you share which IC50 value was measured for "c1ccc(-c2csc(-c3ccncc3)n2)cc1" ?
42.4 µM (inactive)

Which value of IC50 has been reported for "COc1ccc(-c2csc(C3CCNCC3)n2)cc1" in the records?
> 64 µM (inactive)

Item under review: "Fc1ccc(-c2csc(-c3cccnc3)n2)cc1" . Reported IC50?
35.6 µM (inactive)

Dear colleague, I am looking for the recorded IC50 of the following molecule: "N#Cc1ccc(-c2csc(-c3ccncc3)n2)cc1"
37.2 µM (inactive)

Which measured IC50 value corresponds to "COc1cccc(-c2csc(-c3ccncc3)n2)c1" ?
55.7 µM (inactive)

Sample "Cc1ccc(-c2nc(-c3ccncc3)sc2C)cc1" — what was its IC50?
> 64 µM (inactive)

Name the reported IC50 value associated with the molecule "Cc1ccc(-c2csc(-c3cccnc3)n2)cc1"
> 64 µM (inactive)
